Reported values of growth for individual entries
Tested on: NCI/ADR-RES ovarian
Assay: NCI-60 one-dose screen, 48 h (100 = growth as untreated, 0 = no growth, -100 = all killed)
Settings: 10 µM unless noted
Compounds without any hit were thinned out: in the full panel of roughly 83,000, 20% have a hit.
Express it in %; write the number only.

Use the examples below as a reference point.
molecule="CCCn1cnc2c(c1=N)C(c1ccc(F)cc1)c1sc3c(C)cccc3c1O2 (stereo not given)" measured_target="NCI/ADR-RES ovarian" readout_number=-11.8
molecule=COc1cc(/C=C2\C(=O)Nc3cc(Cl)ccc32)ccc1OCc1ccc(F)cc1 measured_target="NCI/ADR-RES ovarian" readout_number=101
molecule="CCCn1cnc2c(c1=N)C(c1ccc(F)cc1)c1sc3c(CC)cccc3c1O2 (stereo not given)" measured_target="NCI/ADR-RES ovarian" readout_number=-13.9
molecule="Cc1cc(C(NC(=O)CCCCCNc2cccc3c2C(=O)N(C2CCC(=O)NC2=O)C3=O)c2ccc3c(c2)OC(F)(F)O3)c(O)c2ncccc12 (stereo not given)" measured_target="NCI/ADR-RES ovarian" readout_number=104

// next item, growth requested
Item C=C(C=O)[C@@H]1CC[C@]2(C)[C@H](CC=C3[C@H]4[C@@H](C)[C@H](C)CC[C@]4(C(=O)OC)CC[C@]32C)[C@@]1(C)CCC#N has what recorded growth? 8.1
